Origin of measurements: PubChem BioAssay AID2718

# experimental.system: Histone deacetylase 3 (Homo sapiens)
# assay.summary: HDAC3 deacetylase inhibitors, primary screen, biochemical, fluorescence, cell-free homogeneous (AID 2718)
# applied.conditions: recombinant HDAC3, fluorogenic peptide/trypsin coupled, at 8.3 µM, stronger effect = higher value
Out of some 320,000 compounds screened, about 480 (0.15%) were called active. Roughly 1% stayed inconclusive and do not appear here. This is one part of a sample in which actives are shown more often than they occur.
Documented inhibition across a set of compounds
API: value field is a number in %; no unit string.

• O=C(CNC(=O)c1ccccc1F)OCC(=O)c1c[nH]c2ccccc12 = 1.43
• COCCNC(=O)CCCN1C(=O)c2ccccc2Sc2ncccc21 = 2.45
• O=C(O)C1C2C=CC(O2)C1C(=O)NCCc1cccc(Cl)c1 (stereo unspecified) = -6.57
• O=C(C1=C[C@H](C2CC2)C[C@H](OCc2ccc(CO)cc2)O1)N1CCN(Cc2ccccc2)CC1 = -8.37
• C=C(C)COc1ccc(-c2ncncc2-c2ccc(OC)cc2)c(O)c1 = 4.53
• C=C(C)COc1ccc(-c2n[nH]c(C)c2-c2ccccc2)c(O)c1 = 28.9
• COc1ccc(-c2n[nH]c(C)c2-c2ccccc2OC)c(O)c1 = -1.09
• CC(C)CC1(C)NC(=O)N(CC(=O)Nc2ccc3c(c2)OCCO3)C1=O (stereo unspecified) = 0.72

Task item: Name the recorded inhibition for Cc1cccc(C)c1Nc1nnc(SCC(=O)NCCCN2CCCC2=O)s1 .
Reply: 0.701

Task item: For C=CC[C@H](CC(=O)NCCO)C(=O)N[C@@H](COC(=O)[C@@H](CC=C)Cc1ccc(F)cc1)Cc1c[nH]c2ccccc12 , what is its reported inhibition?
Reply: 9.77

Task item: // returns reported inhibition for input CN(C)C(=O)c1cccn(Cc2cccc(C(F)(F)F)c2)c1=O
Reply: 0.89

Task item: Return reported inhibition; argument: COc1ccc(C(=O)n2nc(C)c(Br)c2C)cc1OC
Reply: 38.4

Task item: State the recorded inhibition for this entry: COc1cc(NC(=O)COC(=O)c2cc(S(=O)(=O)N3CCOCC3)ccc2F)cc(OC)c1
Reply: -6.13

Task item: What inhibition value was documented for this compound, Fc1ccccc1-c1cc2cc3c(cc2cn1)OCO3 ?
Reply: 0.895

Task item: For Nc1ccc(N=Nc2ccccc2Cl)c(N)n1 , what is its reported inhibition?
Reply: 14.3

Task item: Could you tell me which inhibition is on file for CC(=O)c1cccc(OCC(=O)OCC(=O)Nc2cc(S(=O)(=O)N3CCCCC3)ccc2C)c1 ?
Reply: 0.557

Task item: Could you tell me which inhibition is on file for Cc1cc2c(cc1C)N(C(=O)CN1C(=O)c3ccccc3C1=O)C(C)(C)c1ssc(=S)c1-2 ?
Reply: -10.7

Task item: May I ask what inhibition has been recorded for O=C(NCc1ccc2c(c1)OCO2)c1c(-c2ccsc2)sc2ccccc12 ?
Reply: 4.88

Task item: Query: inhibition; subject: COc1ccccc1C(=O)OCC(=O)Nc1cccc(S(=O)(=O)NC2=NCCCCC2)c1
Reply: -6.85

Task item: Need inhibition, item COc1ccc2nc3n(c(=O)c2c1)-c1ccc(Cl)cc1C(=O)NC3Cc1ccccc1 (stereo unspecified)
Reply: -1.2

Task item: Which inhibition is listed for O=C(CN1CCN(C(=S)NC2CCCC2)CC1)Nc1ccc(Oc2ccccc2)cc1 ?
Reply: -5.51
